Entry source: paper PMC11249646

Measured Efficacy (%) of individual entries
tested system: CIB1 and αIIb interaction (CIB1-GST : F-αIIb peptide) (Homo sapiens)
Construct: made in house; host or cells: BL-21 plus RIL cells (E. coli)
Sequence (Q99828 1-191): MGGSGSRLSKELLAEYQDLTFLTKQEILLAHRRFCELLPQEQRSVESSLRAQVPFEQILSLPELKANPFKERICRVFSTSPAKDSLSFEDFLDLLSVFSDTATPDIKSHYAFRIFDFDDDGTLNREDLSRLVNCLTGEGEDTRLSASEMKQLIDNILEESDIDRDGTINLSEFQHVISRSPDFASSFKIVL
method: FP assay, 1536-well qHTS format (primary and confirmatory screen)
Format: binding
condition notes: qHTS primary screen hits, Table S2; negative = inhibition
parameter: Efficacy (%)

{"columns": ["compound", "val"],
 "data": [
  ["CCN1C(=O)c2ccccc2[S+]([O-])c2ccc(C(=O)NCc3cccc(F)c3)cc21 (stereo not shown)", -70],
  ["Cc1ccc2c(c1)/C(=C\\C(=O)c1cccs1)C(=O)N2.O=C(O)C(F)(F)F", -36],
  ["CC(=O)c1c(O)c(C)c(O)c(Cc2c(O)c3c(c(C(=O)/C=C/c4ccccc4)c2O)OC(C)(C)C=C3)c1O", -45],
  ["NS(=O)(=O)c1ccc(NCc2cn(-c3nc(C(=O)O)cs3)nc2-c2ccccc2)cc1.O=C(O)C(F)(F)F", -25]
]}

====

tested system: CIB1 and αIIb interaction (CIB1-GST : F-αIIb peptide) (Homo sapiens, UniProt Q99828)
Construct: made in house; host or cells: BL-21 plus RIL cells (E. coli)
method: FP assay, 1536-well qHTS format (primary and confirmatory screen)
Assay type: binding
condition notes: Table S3, confirmatory screen; read-out: IC50 [μM] (confirmatory screen)
parameter: IC50

{"columns": ["compound", "val"],
 "data": [
  ["CO[C@@H]1C(N(C)C(=O)c2ccccc2)C[C@H]2O[C@]1(C)n1c3ccccc3c3c4c(c5c6ccccc6n2c5c31)C(=O)NC4=O (some centres unmarked)", "14.1 µM"],
  ["COC(=O)c1scc2c(O)cc(C(F)(F)F)nc12", "70.8 µM"],
  ["COc1ccccc1Nc1ccc2c(O)cc(S(=O)(=O)O)cc2c1.O=C(O)C(F)(F)F", "25.1 µM"],
  ["CC(=O)c1c(O)cc2cccc3c2c1CC(C)(O)O3 (centres unmarked)", "39.8 µM"],
  ["CN(C)CCc1c[nH]c2cccc(O)c12", "112 µM"],
  ["O=C(O)C(F)(F)F.O=C1Nc2ccccc2/C1=N/NC(=S)Nc1ccc(Oc2ccccc2)cc1", "12.6 µM"],
  ["O=C(O)c1cc(/N=N/c2ccc(S(=O)(=O)Nc3ccccn3)cc2)ccc1O", "22.4 µM"],
  ["CC(=O)Nc1sc2c(c1-c1nc3ccccc3o1)CCN(C(C)C)C2.O=C(O)C(F)(F)F", "39.8 µM"]
]}

====

Catalogue of Curve Class values
tested system: CIB1 and αIIb interaction (CIB1-GST : F-αIIb peptide) (Homo sapiens, UniProt Q99828)
Construct: made in house; host or cells: BL-21 plus RIL cells (E. coli)
method: FP assay, 1536-well qHTS format (primary and confirmatory screen)
Assay type: binding
condition notes: qHTS primary screen hits, Table S2; negative sign = inhibitory curve

{"columns": ["molecule", "tested system", "Curve Class"],
 "data": [
  ["NC(=O)N/N=C/c1ccc([N+](=O)[O-])o1", "CIB1 and αIIb interaction (CIB1-GST : F-αIIb peptide) (Homo sapiens, UniProt Q99828)", -2.4],
  ["Cc1ccc(CNc2ncnc3ccc(-c4ccc(CO)o4)cc23)o1.O=C(O)C(F)(F)F", "CIB1 and αIIb interaction (CIB1-GST : F-αIIb peptide) (Homo sapiens, UniProt Q99828)", -2.2],
  ["CCCCC1(C2CCCC2)Cc2cc(OCC(=O)O)c(Cl)c(Cl)c2C1=O (stereo in doubt)", "CIB1 and αIIb interaction (CIB1-GST : F-αIIb peptide) (Homo sapiens, UniProt Q99828)", -2.2],
  ["CN(C)c1cccc(-c2cnc(N3CCC(c4ncc[nH]4)CC3)s2)c1.O=C(O)C(F)(F)F", "CIB1 and αIIb interaction (CIB1-GST : F-αIIb peptide) (Homo sapiens, UniProt Q99828)", -2.4]
]}
